The reported measurements were obtained from patent US12187713B2.

# procedure.details: Pharmacokinetic Assay, single oral dose 5 mg/kg (Table 12)
# Assay type: in vivo
# assay.conditions: mouse; plasma concentration, C57 female mice, single oral dose 5 mg/kg, 0.5 h
Note that class boundaries on concentration at 0.5 h are bin 1 = under 60 ng/mL, bin 2 = from 60 ng/mL up to 100 ng/mL, bin 3 = 100 ng/mL and over

Cc1c(-c2nc3cc(CN4CCC(F)C4)c(OC(F)F)cc3o2)cccc1-c1cccc(-c2nc3cc(CN4CCC[C@H]4C(=O)O)c(OC(F)F)cc3o2)c1C (some centres unmarked) | bin 2

Ask | Exercise: read the entry Cc1c(COc2cc(OCc3cncc(OC(F)F)c3)c(CN3CCC(F)C3)cc2Cl)cccc1-c1cccc(-c2nc3cc(CN4CCC[C@H]4C(=O)O)c(OC(F)F)cc3o2)c1C (some centres unmarked) and state which class it falls under.
Reply | bin 1
